I'd appreciate it if you could supply MIC values for the items below.
test system: Klebsiella pneumoniae; experiment: Antibacterial activity Klebsiella pneumoniae ATCC 13883 assessed as inhibition of visible bacterial growth incubated for 18 hrs by microbroth dilution assay; type: functional
Where a SMILES comes first, the peptide text is derived from it. [ ]: non-standard residue; d: D form. The star is where a group is joined. ξ: configuration not given here. Hexanoyl(4ξ-Me) = CCC(C)CCC(=O)*; dOrn = NCCC[C@@H](N)C(=O)O; Orn = NCCC[C@H](N)C(=O)O

CCC(C)CCC(=O)N[C@H](CC(N)=O)C(=O)N[C@H](Cc1ccc(O)cc1)C(=O)N[C@H](C)C(=O)N[C@H](CCCN)C(=O)N[C@@H](CCCN)C(=O)NCC(=O)N[C@H](CCCN)C(=O)N[C@@H](Cc1c[nH]c2ccccc12)C(=O)N[C@H](C(=O)N[C@H](C(=O)NCC(=O)N[C@@H](CO)C(N)=O)[C@@H](C)CC)[C@@H](C)O (stereo not given in full) ({Hexanoyl(4ξ-Me)}-[dN][dY][dA][dOrn][Orn]G[dOrn]WTIGS-NH2) = > 32 µg/mL

Provide MIC values for the following items, in order.
1. CCC(C)CCC(=O)N[C@H](CC(N)=O)C(=O)N[C@H](Cc1ccc(O)cc1)C(=O)N[C@H](Cc1c[nH]c2ccccc12)C(=O)N[C@H](CCCN)C(=O)N[C@@H](CCCN)C(=O)NCC(=O)N[C@H](CCCN)C(=O)N[C@@H](Cc1c[nH]c2ccccc12)C(=O)N[C@H](C(=O)N[C@@H](C)C(=O)NCC(=O)N[C@@H](CO)C(N)=O)[C@@H](C)O (stereo not given in full) ({Hexanoyl(4ξ-Me)}-[dN][dY][dW][dOrn][Orn]G[dOrn]WTAGS-NH2)
2. CCC(C)CCC(=O)N[C@H](CC(N)=O)C(=O)N[C@H](C)C(=O)N[C@H](Cc1c[nH]c2ccccc12)C(=O)N[C@H](CCCN)C(=O)N[C@@H](CCCN)C(=O)NCC(=O)N[C@H](CCCN)C(=O)N[C@@H](Cc1c[nH]c2ccccc12)C(=O)N[C@H](C(=O)N[C@H](C(=O)NCC(=O)N[C@@H](CO)C(N)=O)[C@@H](C)CC)[C@@H](C)O (stereo not given in full) ({Hexanoyl(4ξ-Me)}-[dN][dA][dW][dOrn][Orn]G[dOrn]WTIGS-NH2)
3. CCC(C)CCC(=O)N[C@H](C)C(=O)N[C@H](Cc1ccc(O)cc1)C(=O)N[C@H](Cc1c[nH]c2ccccc12)C(=O)N[C@H](CCCN)C(=O)N[C@@H](CCCN)C(=O)NCC(=O)N[C@H](CCCN)C(=O)N[C@@H](Cc1c[nH]c2ccccc12)C(=O)N[C@H](C(=O)N[C@H](C(=O)NCC(=O)N[C@@H](CO)C(N)=O)[C@@H](C)CC)[C@@H](C)O (stereo not given in full) ({Hexanoyl(4ξ-Me)}-[dA][dY][dW][dOrn][Orn]G[dOrn]WTIGS-NH2)
4. CCC(C)CCC(=O)N[C@H](CC(N)=O)C(=O)N[C@H](Cc1ccc(O)cc1)C(=O)N[C@H](Cc1c[nH]c2ccccc12)C(=O)N[C@H](CCCN)C(=O)N[C@@H](CCCN)C(=O)NCC(=O)N[C@H](C)C(=O)N[C@@H](Cc1c[nH]c2ccccc12)C(=O)N[C@H](C(=O)N[C@H](C(=O)NCC(=O)N[C@@H](CO)C(N)=O)[C@@H](C)CC)[C@@H](C)O (stereo not given in full) ({Hexanoyl(4ξ-Me)}-[dN][dY][dW][dOrn][Orn]G[dA]WTIGS-NH2)

[reply]
1: > 32 µg/mL; 2: > 32 µg/mL; 3: 16 µg/mL; 4: > 32 µg/mL
